Hello, the source for this data is PubChem BioAssay (Tox21), in case you need it.

- test protocol: qHTS assay to identify small molecule antagonists of the estrogen related receptor signaling pathway with the pleiotropic PPARgamma coactivator (PGC) from Tox21 10K library - cell viability counter screen (AID 1224840); further: nearly all actives have a fitted effect of over 40% in size
- measurement parameters: PGC/ERR reporter cells viability, CellTiter-Fluor, 17.5 h; series mostly up to 92.4 µM
Records with an inconclusive call do not appear. Activity calls are given as the source filed them. The call rests on the fitted dose curve; in most records, active means well fitted cell-killing curve with a large enough effect in the repeat runs (not every such curve was filed as active); inconclusive means weak or mixed curves, or effect the other way; inactive means no such curve, though single readings can be large or run the other way.
endpoint label: outcome

NS(=O)(=O)c1cc(C(=O)O)c(NCc2ccco2)cc1Cl    inactive
Cc1cc(=O)[nH]c(=S)[nH]1    inactive
O=S(=O)(O)NC1CCCCC1    inactive

###

- test protocol: qHTS assay to identify small molecule agonists of the peroxisome proliferator-activated receptor delta (PPARd) signaling pathway - cell viability counter screen (AID 743211); further: nearly all actives have a fitted effect of over 55% in size
- measurement parameters: PPARd-bla HEK293H viability, CellTiter-Glo luminescence, 17 h; series mostly up to 62.6 µM
- Text: U.S. Tox21 Program National Center for Advancing Translational Sciences [NCATS] NIH Chemical Genomics Center [NCGC] U.S. Environmental Protection Agency [EPA] National Institutes of Environmental Health Sciences [NIEHS] National Toxicology Program [NTP] U.S. Food and Drug Administration [FDA] […]
Records with an inconclusive call do not appear. Calls of active or inactive are those of the source. The call rests on the fitted dose curve; in most records, active means well fitted cell-killing curve with a large enough effect in the repeat runs; inconclusive means weak or mixed curves; inactive means no such curve, though single readings can be large or run the other way.
endpoint label: outcome

The examples below pair each entry with its known result.
CCCN(CCC)S(=O)(=O)c1ccc(C(=O)O)cc1    inactive
O=C(O)c1cccc([N+](=O)[O-])c1    inactive
O=C(O)c1[nH]n(-c2ccc(S(=O)(=O)O)cc2)c(=O)c1N=Nc1ccc(S(=O)(=O)O)cc1    inactive
OC(Cn1cncn1)(Cn1cncn1)c1ccc(F)cc1F    inactive
CC(O)C(=O)O (configuration not stated)    inactive

I'm hoping you can list outcome for every compound here, please.
1. CC(C)(Oc1ccc(C2CC2(Cl)Cl)cc1)C(=O)O (configuration not stated)
2. O=C(O)CCCCCCCC(=O)O

1. inactive
2. inactive

###

- test protocol: qHTS assay to identify small molecule antagonists of the thyroid receptor (TR) signaling pathway - cell viability counter screen (AID 743064); further: nearly all actives have a fitted effect of over 50% in size
- measurement parameters: GH3.TRE-Luc viability, CellTiter-Fluor, 24 h; series mostly up to 70.3 µM
Results filed as inconclusive are left out. Calls of active or inactive are those of the source. Calls follow the shape of the dose curve; as a rule, active = well fitted cell-killing curve with a large enough effect in the repeat runs; inconclusive = weak or mixed curves, or effect the other way; inactive = no such curve, though single readings can be large or run the other way.
endpoint label: outcome

CC(=O)OCC(COC(C)=O)OC(C)=O    inactive
CC(=O)NS(=O)(=O)c1ccc(N)cc1    inactive
CCCCCCCCCCCCCCCC(=O)O    inactive
NS(=O)(=O)c1cc(C(=O)O)c(NCc2ccco2)cc1Cl    inactive
CNC[C@H](O)c1cccc(O)c1    inactive
O=C(O)CCCCCCCC(=O)O    inactive
OCCc1ccccc1    inactive
NC(=O)c1ccccc1O    inactive

Each molecule below has a reported value. Please supply its outcome.
1. O=C(C1CCCCC1)N1CC(=O)N2CCc3ccccc3C2C1 (centres undefined)
2. Cc1cn([C@H]2C[C@H](N=[N+]=[N-])[C@@H](CO)O2)c(=O)[nH]c1=O
3. c1ccc2[nH]ccc2c1
4. NC(N)=O
5. Nc1ccc(S(=O)(=O)Nc2nccs2)cc1
6. Cn1c(=O)c2[nH]cnc2n(C)c1=O

inactive
inactive
inactive
inactive
inactive
inactive

###

- test protocol: qHTS assay to identify small molecule agonists of the farnesoid-X-receptor (FXR) signaling pathway - cell viability counter screen (AID 743218); further: nearly all actives have a fitted effect of over 45% in size
- measurement parameters: FXR-bla HEK293T viability, CellTiter-Glo luminescence, 16 h; series mostly up to 62.6 µM
Records with an inconclusive call do not appear. Active and inactive are the calls of the source. The call rests on the fitted dose curve; in most records, active means well fitted cell-killing curve with a large enough effect in the repeat runs; inconclusive means weak or mixed curves, or effect the other way; inactive means no such curve, though single readings can be large or run the other way.
endpoint label: outcome

Nc1ccc(O)c(C(=O)O)c1    inactive
Cn1c(=O)c2[nH]cnc2n(C)c1=O    inactive
COc1c2occc2cc2ccc(=O)oc12    inactive
NC(=O)NC1NC(=O)NC1=O (centres undefined)    inactive
O=C(O)/C=C\C(=O)O    inactive

Please give outcome, item by item, for the list that follows.
1. O=S(=O)(O)c1ccc2cc(O)ccc2c1
2. Cc1ccc(S(=O)(=O)NC(=O)NN2CCCCCC2)cc1
3. CNC[C@H](O)c1cccc(O)c1
4. C1N2CN3CN1CN(C2)C3
5. CCCC(O)C(CC)CO (centres undefined)

1. inactive
2. inactive
3. inactive
4. inactive
5. inactive

Field: outcome. Fill in for each record below.
1. C[C@]12C=CC(=O)C=C1CC[C@@H]1[C@@H]2[C@@H](O)C[C@@]2(C)[C@H]1CC[C@]2(O)C(=O)CO
2. OCCc1ccccc1
3. Cc1ccccc1C(OCCN(C)C)c1ccccc1 (centres undefined)
4. O=c1ccc2ccccc2o1

1. inactive
2. inactive
3. inactive
4. inactive
